Origin of the recorded values: ChEMBL document CHEMBL3875216

- Tested on: Escherichia coli
- assay_protocol: Inhibition of LuxR-dependent quorum sensing activity in Escherichia coli MT102 harboring pJBA132 assessed as inhibition of OHHL-induced GFP expression at 2 mM measured after 24 hrs by fluorescence assay relative to control
Each entry below carries its reported inhibition.

molecule: CC(=O)OC[C@H]1O[C@@H](OC(C)=O)[C@H](NC(=O)Cc2c[nH]c3ccccc23)[C@@H](OC(C)=O)[C@@H]1OC(C)=O
readout_units: %
inhibition: 24.2
--
molecule: CCCCCC(=O)N[C@H]1[C@H](OC(C)=O)O[C@H](COC(C)=O)[C@@H](OC(C)=O)[C@@H]1OC(C)=O
readout_units: %
inhibition: 17.2
--
molecule: COc1ccc(CC(=O)N[C@@H]2[C@@H](O)[C@H](O)[C@@H](CO)O[C@H]2O)cc1
readout_units: %
inhibition: 2.6
--
molecule: CCCCCCCCCC(=O)N[C@H]1[C@H](OC(C)=O)O[C@H](COC(C)=O)[C@@H](OC(C)=O)[C@@H]1OC(C)=O
readout_units: %
inhibition: 35.5
--
molecule: CCCCCCCC(=O)N[C@@H]1[C@@H](O)[C@H](O)[C@@H](CO)O[C@H]1O
readout_units: %
inhibition: 45.7
--
molecule: O=C(Cc1ccc(Br)cc1)N[C@@H]1[C@@H](O)[C@H](O)[C@@H](CO)O[C@H]1O
readout_units: %
inhibition: 1.1
--
molecule: CCCCCCCCCCCC(=O)N[C@H]1[C@H](OC(C)=O)O[C@H](COC(C)=O)[C@@H](OC(C)=O)[C@@H]1OC(C)=O
readout_units: %
inhibition: 59.7
--
molecule: CC(=O)OC[C@H]1O[C@@H](OC(C)=O)[C@H](NC(=O)Cc2ccc(Cl)cc2)[C@@H](OC(C)=O)[C@@H]1OC(C)=O
readout_units: %
inhibition: 16.5
--
molecule: CC(=O)OC[C@H]1O[C@@H](OC(C)=O)[C@H](NC(=O)Cc2ccc(F)cc2)[C@@H](OC(C)=O)[C@@H]1OC(C)=O
readout_units: %
inhibition: 61.1
--
molecule: CCCC(=O)CC(=O)N[C@H]1[C@H](OC(C)=O)O[C@H](COC(C)=O)[C@@H](OC(C)=O)[C@@H]1OC(C)=O
readout_units: %
inhibition: 40.9
--
molecule: COc1ccc(CC(=O)N[C@H]2[C@H](OC(C)=O)O[C@H](COC(C)=O)[C@@H](OC(C)=O)[C@@H]2OC(C)=O)cc1
readout_units: %
inhibition: 25.4
--
molecule: CCCCCCCCCC(=O)N[C@@H]1[C@@H](O)[C@H](O)[C@@H](CO)O[C@H]1O
readout_units: %
inhibition: 23.3
--
molecule: CC(=O)OC[C@H]1O[C@@H](OC(C)=O)[C@H](NC(=O)Cc2ccc(Br)cc2)[C@@H](OC(C)=O)[C@@H]1OC(C)=O
readout_units: %
inhibition: 71.2
--
molecule: CC(=O)OC[C@H]1O[C@@H](OC(C)=O)[C@H](NC(=O)CCCc2ccccc2)[C@@H](OC(C)=O)[C@@H]1OC(C)=O
readout_units: %
inhibition: 43.8
--
molecule: CC(=O)N[C@@H]1[C@@H](O)[C@H](O)[C@@H](CO)O[C@H]1O [N-ACETYLGLUCOSAMINE]
readout_units: %
inhibition: 96.1
